Overview of recorded IC50 for various compounds
Test system: SUDHL5
procedureSummary: Induction of cytotoxicity (CellTiter-Glo, 5 h), SUDHL5
particulars: read-out: Cytotox SUDHL5 [M] (median); SUDHL5 cells, cytotoxicity induction, CellTiter-Glo, 5 h incubation, median
Report the value in M with no unit label.

[[record]]
compound = "Cn1nc(COc2ccc(N3CCN(S(C)(=O)=O)CC3)cc2)c2c1COCCCCn1c(C(=O)O)c(CCCOc3cccc4ccccc34)c3cccc-2c31 (single isomer, unassigned; enantiomer 1) [Example 1-9]"
quantitativeresult = "9.46e-06"

[[record]]
compound = "Cc1nn(C)c2c1-c1cccc3c(CCCOc4cccc5cc(F)ccc45)c(C(=O)O)n(c13)CCCCOC2 (single isomer, unassigned; enantiomer 2) [Example 020]"
quantitativeresult = "2.31e-05"

[[record]]
compound = "CCc1c2c(nn1C)CN(C)CCCn1c(C(=O)O)c(CCCOc3cccc4ccccc34)c3ccc(C)c-2c31 (single isomer, unassigned; enantiomer 2) [Example 146]"
quantitativeresult = "1.66e-05"


*Q* Request body: readout IC50, system SUDHL5, query CN1CCCn2c(C(=O)O)c(CCCOc3cccc4ccccc34)c3cccc(c32)-c2c(COc3ccc(N4CCOCC4)cc3)nn(C)c2C1 (single isomer, unassigned) [Example 1-88] . Return the value.
*A* 5.9e-06

*Q* Also need CN1CCCn2c(C(=O)O)c(CCCOc3cccc4ccccc34)c3cccc(c32)-c2c(COc3ccc(N4CCN(S(=O)(=O)N(C)C)CC4)cc3)nn(C)c2C1 (single isomer, unassigned; enantiomer 1) [Example 1-15] , thanks.
*A* 1.38e-06

*Q* Also need Cc1cc(OCCCc2c(C(=O)O)n3c4c(cccc24)-c2c(C)nn(C)c2COCCCC3)cc(C)c1Cl (single isomer, unassigned; enantiomer 1) [Example 010] , thanks.
*A* 7.4e-06

*Q* Also need Cc1ccc2c(CCCOc3cccc4ccccc34)c(C(=O)O)n3c2c1-c1c(nn(C)c1C)CN(C)CCC3 (single isomer, unassigned; enantiomer 2) [Example 074] , thanks.
*A* 1.2e-05

*Q* Also need CN1CCCn2c(C(=O)O)c(CCCOc3cccc4ccccc34)c3cccc(c32)-c2c(COc3ccc(N4CCN(S(C)(=O)=O)CC4)cc3)nn(C)c2C1 (single isomer, unassigned) [Example 1-47] , thanks.
*A* 1.08e-05

====

testedSystem: MCL-1 (Homo sapiens, UniProt Q07820)
Sequence (Q07820 whole entry): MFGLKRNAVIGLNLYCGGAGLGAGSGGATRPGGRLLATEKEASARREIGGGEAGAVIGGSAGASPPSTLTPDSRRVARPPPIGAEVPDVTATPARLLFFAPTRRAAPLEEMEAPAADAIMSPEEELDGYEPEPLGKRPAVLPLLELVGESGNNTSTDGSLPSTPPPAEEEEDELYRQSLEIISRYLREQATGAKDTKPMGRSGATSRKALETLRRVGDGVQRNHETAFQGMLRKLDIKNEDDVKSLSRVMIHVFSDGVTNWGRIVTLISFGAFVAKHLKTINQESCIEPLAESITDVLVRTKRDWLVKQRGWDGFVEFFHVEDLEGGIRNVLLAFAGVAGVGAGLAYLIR
procedureSummary: Protein-protein interaction assay MCL-1/Noxa BH3 peptide (MCL-1 assay), TR-FRET
Assay type: binding
particulars: MBP-MCL-1 / Noxa BH3-derived peptide, median
property: IC50 (nM)
Report the value in nM with no unit label.

Reference set, count: 3
[[record]]
compound = "CCc1nn(C)c2c1-c1c(C)ccc3c(C(C)CCOc4cccc5ccccc45)c(C(=O)O)n(c13)CCCCOC2 (single isomer, unassigned) [Example 275]"
quantitativeresult = 3970

[[record]]
compound = "Cn1nc(CN2CCCCC2=O)c2c1COCCCCn1c(C(=O)O)c(CCCOc3cccc4ccccc34)c3cccc-2c31 (single isomer, unassigned; enantiomer 2) [Example 327]"
quantitativeresult = 103

[[record]]
compound = "Cc1c2c(nn1CC(F)(F)F)COCCCCn1c(C(=O)O)c(CCCOc3cccc4ccccc34)c3cccc-2c31 [Example 241]"
quantitativeresult = 7.51


Proceed to the following item.
*Q* Request the reported IC50 associated with Cn1nc(COc2ccc(N3CCN(S(=O)(=O)C4CC4)CC3)cc2)c2c1COCCCCn1c(C(=O)O)c(CCCOc3cccc4ccccc34)c3cccc-2c31 (racemic) [Example 1-11]
*A* 1.75

====

Test system: SK-MEL-2
procedureSummary: Anti-proliferative effect (CellTiter-Glo, 72 h), SK-MEL-2
Format: cell-based
particulars: Homo sapiens, SK-MEL-2 cells, median, read-out: IC50 antiproliferation assay SK-MEL-2 [M] (median)
property: IC50 (M)
Report the value in M with no unit label.

[[record]]
molecule = "Cn1nc(COc2ccc(N3CCN(S(=O)(=O)C4CC4)CC3)cc2)c2c1COCCCCn1c(C(=O)O)c(CCCOc3cccc4ccccc34)c3cccc-2c31 (single isomer, unassigned; enantiomer 2) [Example 1-13]"
property = "IC50"
units = "M"
quantitativeresult = "4.96e-06"


*Q* Request the reported IC50 associated with CCc1c2c(nn1C)CN(C)CCCn1c(C(=O)O)c(CCCOc3cccc4ccccc34)c3ccc(C)c-2c31 (single isomer, unassigned; enantiomer 1) [Example 145]
*A* 1.17e-05

====

testedSystem: MCL-1 (Homo sapiens, UniProt Q07820)
procedureSummary: Protein-protein interaction assay MCL-1/Noxa BH3 peptide (MCL-1 assay), TR-FRET
Assay type: binding
particulars: MBP-MCL-1 / Noxa BH3-derived peptide, median
Counter-ions that a name gives are not always drawn.
Overview of recorded IC50 for various compounds

Reference set, count: 4
[[record]]
compound = "Cn1nc(COc2ccc(N3CCOCC3)cc2)c2c1COCCCCn1c(C(=O)O)c(CCCOc3cccc4ccccc34)c3cccc-2c31 (single isomer, unassigned; enantiomer 2) [Example 123]"
property = "IC50"
result = "3.14 nM"

[[record]]
compound = "Cc1c2c(nn1CCN1CCOCC1)CN(C)CCCn1c(C(=O)O)c(CCCOc3cccc4ccccc34)c3cccc-2c31 (single isomer, unassigned; enantiomer 1) [Example 060]"
property = "IC50"
result = "5.44 nM"

[[record]]
compound = "Cc1nn(C)c2c1-c1cccc3c(CCCOc4cccc5ccccc45)c(C(=O)O)n(c13)CCCCOCC2 (racemic)"
property = "IC50"
result = "8.96 nM"

[[record]]
compound = "Cc1ccc2cccc(OCCCc3c(C(=O)O)n4c5c(cccc35)-c3c(C)nn(C)c3COCCCC4)c2c1 (racemic)"
property = "IC50"
result = "27.4 nM"


*Q* Request the reported IC50 associated with Cc1c2c(nn1CCN1CCOCC1)CN(C)CCCn1c(C(=O)O)c(CCCOc3cccc4ccccc34)c3cccc-2c31 (racemic) [Example 059]
*A* 23.9 nM

*Q* Also need CCn1nc(C2CC2)c2c1COCCCCn1c(C(=O)O)c(CCCOc3cccc4ccccc34)c3cccc-2c31 (single isomer, unassigned; enantiomer 2) [Example 090] , thanks.
*A* 10.3 nM

*Q* Also need Cc1c2c(nn1C)COCCCn1c(C(=O)O)c(CCCOc3cccc4ccccc34)c3cccc-2c31 (single isomer, unassigned; enantiomer 1) [Example 064] , thanks.
*A* 11.5 nM

*Q* Also need COCc1nn(C)c2c1-c1cccc3c(CCCOc4cccc5ccccc45)c(C(=O)O)n(c13)CCCCN(C)C2 (single isomer, unassigned; enantiomer 2) [Example 185] , thanks.
*A* 211 nM

*Q* Also need CC(=O)N1CCN(c2ccc(OCc3nn(C)c4c3-c3cccc5c(CCCOc6cccc7ccccc67)c(C(=O)O)n(c35)CCCCOC4)cc2)CC1 (single isomer, unassigned; enantiomer 1) [Example 1-25] , thanks.
*A* 131 nM

*Q* Also need Cc1c2c(nn1C)COC/C=C\Cn1c(C(=O)O)c(CCCOc3cccc4ccccc34)c3cccc-2c31 (racemic) , thanks.
*A* 13.1 nM

*Q* Also need CN1CCN(Cc2c3c(nn2C)COC/C=C\Cn2c(C(=O)O)c(CCCOc4cccc5ccccc45)c4cccc-3c42)CC1 (racemic) , thanks.
*A* 17.3 nM

*Q* Also need COc1ccc2c(CCCOc3cccc4ccccc34)c(C(=O)O)n3c2c1-c1c(C)nn(C)c1COCCCC3 (single isomer, unassigned; enantiomer 1) [Example 352] , thanks.
*A* 45.4 nM

*Q* Also need Cn1nc(CCN2CCOCC2)c2c1COCCCCn1c(C(=O)O)c(CCCOc3cccc4ccccc34)c3cccc-2c31 (racemic) [Example 150] , thanks.
*A* 7.61 nM

*Q* Also need COCc1c2c(nn1C)COCCCCn1c(C(=O)O)c(CCCOc3cccc4ccccc34)c3cccc-2c31 (racemic) [Example 099] , thanks.
*A* 4.3 nM

*Q* Also need COCCn1nc2c(c1C1CC1)-c1cccc3c(CCCOc4cccc5ccccc45)c(C(=O)O)n(c13)CCCCOC2 (single isomer, unassigned; enantiomer 1) [Example 085] , thanks.
*A* 4.51 nM

*Q* Also need Cc1nn(CCN(C)C)c2c1-c1cccc3c(CCCOc4cccc5ccccc45)c(C(=O)O)n(c13)CCCCOC2 (racemic) [Example 244, Trifluoroacetic Acid Salt] , thanks.
*A* 6.64 nM

*Q* Also need Cc1nn(CC(F)(F)F)c2c1-c1cccc3c(CCCOc4cccc5ccccc45)c(C(=O)O)n(c13)CCCCOC2 (single isomer, unassigned; enantiomer 2) [Example 111] , thanks.
*A* 327 nM

*Q* Also need COCCn1nc2c(c1C)-c1cccc3c(CCCOc4cccc5ccccc45)c(C(=O)O)n(c13)CCCCOC2 (single isomer, unassigned; enantiomer 1) [Example 107] , thanks.
*A* 1.71 nM

*Q* Also need Cc1ccc2c(CCCOc3cccc4cc(F)ccc34)c(C(=O)O)n3c2c1-c1c(nn(CCN2CCOCC2)c1C)COCCCC3 (single isomer, unassigned) [Example 293] , thanks.
*A* 0.676 nM

*Q* Also need CCc1nn(C)c2c1-c1c(C)ccc3c(C(C)CCOc4cccc5cc(F)ccc45)c(C(=O)O)n(c13)CCCCOC2 (racemic) [Example 261] , thanks.
*A* 3.73 nM

*Q* Also need Cn1nc(CN2CCCCC2)c2c1COCCCCn1c(C(=O)O)c(CCCOc3cccc4ccccc34)c3cccc-2c31 (single isomer, unassigned; enantiomer 1) [Example 333] , thanks.
*A* 1040 nM

*Q* Also need Cc1ccc2c(CCCOc3cccc4ccccc34)c(C(=O)O)n3c2c1-c1c(nn(C)c1C)COC/C=C\C3 (racemic) , thanks.
*A* 6.52 nM

Value source: patent US10981932B2
